target: Cathepsin G (Homo sapiens); assay: Inhibition of human neutrophil cathepsin G using Boc-Gln-Ala-Arg-MCA as substrate preincubated for 10 mins followed by substrate addition measured after 10 mins by fluorescence assay
Sequence (P08311 whole entry): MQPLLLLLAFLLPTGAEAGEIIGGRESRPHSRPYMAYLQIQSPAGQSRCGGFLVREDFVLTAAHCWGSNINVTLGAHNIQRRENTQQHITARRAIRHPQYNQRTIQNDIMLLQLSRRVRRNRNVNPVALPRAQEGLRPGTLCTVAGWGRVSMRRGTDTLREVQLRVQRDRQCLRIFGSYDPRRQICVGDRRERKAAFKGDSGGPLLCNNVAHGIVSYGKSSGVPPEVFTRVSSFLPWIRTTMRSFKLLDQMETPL
Here, each record is paired with measured pIC50 data.
Interpret pIC50 as the negative base-10 log of the concentration measured in mol/L.

Given the entry CC[C@@H](NC(=O)N1CC(=O)NCC(Cc2cc(Cl)ccc2OC)C1=O)C(=O)Nc1cccc(C(=O)O)c1 (some centres undefined) , report its measured pIC50. 5.07

Now this one: CC[C@@H](NC(=O)N1CC(=O)NC[C@@H](Cc2cc(Cl)ccc2OC)C1=O)c1cc(C(=O)O)co1 5.11
